Source: ChEMBL document CHEMBL1132901

Test system: Staphylococcus aureus
Experiment: In vitro antimicrobial activity against Staphylococcus aureus 285
Format: functional
Recorded MIC values for a group of compounds are listed next.
// units = µg/mL; emit number, no label

These solved cases illustrate the format of a correct answer.
CHEMICAL_STRING | UNIT_DESCRIPTOR | ENDPOINT_RESULT
CO/N=C(/C(=O)N[C@@H]1C(=O)N2C(C(=O)[O-])=C(C[n+]3cccc(-c4cc[nH]n4)c3)CS[C@H]12)c1csc(N)n1 | µg/mL | 3.12
CO/N=C(/C(=O)N[C@@H]1C(=O)N2C(C(=O)[O-])=C(C[n+]3cccc(-c4cc(C)[nH]n4)c3)CS[C@H]12)c1csc(N)n1 | µg/mL | 0.781
CO/N=C(/C(=O)N[C@@H]1C(=O)N2C(C(=O)[O-])=C(C[n+]3cccc(-c4cc(C(N)=O)nn4C)c3)CS[C@H]12)c1csc(N)n1 | µg/mL | 3.12
CO/N=C(/C(=O)N[C@@H]1C(=O)N2C(C(=O)[O-])=C(C[n+]3cccc(-c4cc(N)n(C)n4)c3)CS[C@H]12)c1csc(N)n1 | µg/mL | 0.781
CO/N=C(/C(=O)N[C@@H]1C(=O)N2C(C(=O)[O-])=C(C[n+]3cccc(-c4cc(CO)[nH]n4)c3)CS[C@H]12)c1csc(N)n1 | µg/mL | 1.56

// next entry
Record CO/N=C(/C(=O)N[C@@H]1C(=O)N2C(C(=O)[O-])=C(C[n+]3cccc(-c4cc(N)n(CCO)n4)c3)CS[C@H]12)c1csc(N)n1 : what is its MIC with Staphylococcus aureus?
1.56

###

System: Enterococcus faecium
Experiment: In vitro antimicrobial activity against Streptococcus faecium MD 8b
Assay type: functional
Recorded MIC values for a group of compounds are listed next.
// units = µg/mL; emit number, no label

These solved cases illustrate the format of a correct answer.
COMPOUND | MIC (µg/mL)
CO/N=C(/C(=O)N[C@@H]1C(=O)N2C(C(=O)[O-])=C(C[n+]3cccc(-c4cc(CO)nn4C)c3)CS[C@H]12)c1csc(N)n1 | 6.25
CO/N=C(/C(=O)N[C@@H]1C(=O)N2C(C(=O)[O-])=C(C[n+]3cccc(-c4cc(N)[nH]n4)c3)CS[C@H]12)c1csc(N)n1 | 1.56
CO/N=C(/C(=O)N[C@@H]1C(=O)N2C(C(=O)[O-])=C(C[n+]3cccc(-c4cc(CO)nn4CCO)c3)CS[C@H]12)c1csc(N)n1 | 12.5
CO/N=C(/C(=O)N[C@@H]1C(=O)N2C(C(=O)[O-])=C(C[n+]3cccc(-c4cc(CO)[nH]n4)c3)CS[C@H]12)c1csc(N)n1 | 3.12
CO/N=C(/C(=O)N[C@@H]1C(=O)N2C(C(=O)[O-])=C(C[n+]3cccc(-c4cc(C)[nH]n4)c3)CS[C@H]12)c1csc(N)n1 | 3.12

Requested read-out: MIC. Entry: CO/N=C(/C(=O)N[C@@H]1C(=O)N2C(C(=O)[O-])=C(C[n+]3cccc(-c4cc(N)n(C)n4)c3)CS[C@H]12)c1csc(N)n1
1.56

Next up: CO/N=C(/C(=O)N[C@@H]1C(=O)N2C(C(=O)[O-])=C(C[n+]3cccc(-c4cc(C(N)=O)nn4CCO)c3)CS[C@H]12)c1csc(N)n1
6.25

Next up: CO/N=C(/C(=O)N[C@@H]1C(=O)N2C(C(=O)[O-])=C(C[n+]3cccc(-c4cc(C(N)=O)[nH]n4)c3)CS[C@H]12)c1csc(N)n1
3.12

Next up: CO/N=C(/C(=O)N[C@@H]1C(=O)N2C(C(=O)[O-])=C(C[n+]3cccc(-c4cc(C(N)=O)nn4C)c3)CS[C@H]12)c1csc(N)n1
3.12

###

Test system: Staphylococcus aureus
Assay: In vitro antimicrobial activity against Staphylococcus aureus 503
Type: functional
Recorded MIC values for a group of molecules are listed next.
// units = µg/mL; emit number, no label

These solved cases illustrate the format of a correct answer.
MOLECULE | UNIT_DESCRIPTOR | MIC
CO/N=C(/C(=O)N[C@@H]1C(=O)N2C(C(=O)[O-])=C(C[n+]3cccc(-c4cc(C(N)=O)[nH]n4)c3)CS[C@H]12)c1csc(N)n1 | µg/mL | 0.391
CO/N=C(/C(=O)N[C@@H]1C(=O)N2C(C(=O)[O-])=C(C[n+]3cccc(-c4cc(CO)[nH]n4)c3)CS[C@H]12)c1csc(N)n1 | µg/mL | 0.391
CO/N=C(/C(=O)N[C@@H]1C(=O)N2C(C(=O)[O-])=C(C[n+]3cccc(-c4cc(N)n(CCO)n4)c3)CS[C@H]12)c1csc(N)n1 | µg/mL | 0.391

Requested read-out: MIC. Entry: CC(C)(O/N=C(\C(=O)N[C@@H]1C(=O)N2C(C(=O)[O-])=C(C[n+]3ccccc3)CS[C@H]12)c1csc(N)n1)C(=O)O
3.12

Next up: CO/N=C(/C(=O)N[C@@H]1C(=O)N2C(C(=O)[O-])=C(C[n+]3cccc(-c4cc[nH]n4)c3)CS[C@H]12)c1csc(N)n1
0.781

Next up: CO/N=C(/C(=O)N[C@@H]1C(=O)N2C(C(=O)[O-])=C(C[n+]3cccc(-c4cc(C)[nH]n4)c3)CS[C@H]12)c1csc(N)n1
0.195

Next up: CO/N=C(/C(=O)NC1C(=O)N2C(C(=O)[O-])=C(C[n+]3cccc4c3CCC4)CSC12)c1csc(N)n1 (configuration not stated)
0.098

###

Tested on: Streptococcus pyogenes
Test: In vitro antimicrobial activity against Streptococcus pyogenes SG 511
Assay type: functional
Recorded MIC values for a group of molecules are listed next.
// units = µg/mL; emit number, no label

MOLECULE | MIC (µg/mL)
CO/N=C(/C(=O)NC1C(=O)N2C(C(=O)[O-])=C(C[n+]3cccc4c3CCC4)CSC12)c1csc(N)n1 (configuration not stated) | 0.391
CO/N=C(/C(=O)N[C@@H]1C(=O)N2C(C(=O)[O-])=C(C[n+]3cccc(-c4cc(N)n(CCO)n4)c3)CS[C@H]12)c1csc(N)n1 | 0.781
CO/N=C(/C(=O)N[C@@H]1C(=O)N2C(C(=O)[O-])=C(C[n+]3cccc(-c4cc(N)n(C)n4)c3)CS[C@H]12)c1csc(N)n1 | 0.781
CO/N=C(/C(=O)N[C@@H]1C(=O)N2C(C(=O)[O-])=C(C[n+]3cccc(-c4cc(C(N)=O)nn4C)c3)CS[C@H]12)c1csc(N)n1 | 1.56
CO/N=C(/C(=O)N[C@@H]1C(=O)N2C(C(=O)[O-])=C(C[n+]3cccc(-c4cc(C)[nH]n4)c3)CS[C@H]12)c1csc(N)n1 | 0.781

Requested read-out: MIC. Entry: CO/N=C(/C(=O)N[C@@H]1C(=O)N2C(C(=O)[O-])=C(C[n+]3cccc(-c4cc(C(N)=O)nn4CCO)c3)CS[C@H]12)c1csc(N)n1
1.56

Next up: CO/N=C(/C(=O)N[C@@H]1C(=O)N2C(C(=O)[O-])=C(C[n+]3cccc(-c4cc(CO)nn4C)c3)CS[C@H]12)c1csc(N)n1
3.12

###

System: Enterobacter cloacae
Test: In vitro antimicrobial activity against Enterobacter 1321 E
Type: functional
Recorded MIC values for a group of compounds are listed next.
// units = µg/mL; emit number, no label

COMPOUND | MIC, µg/mL
CO/N=C(/C(=O)N[C@@H]1C(=O)N2C(C(=O)[O-])=C(C[n+]3cccc(-c4cc(C(N)=O)[nH]n4)c3)CS[C@H]12)c1csc(N)n1 | 0.025

Requested read-out: MIC. Entry: CO/N=C(/C(=O)N[C@@H]1C(=O)N2C(C(=O)[O-])=C(C[n+]3cccc(-c4cc(CO)nn4C)c3)CS[C@H]12)c1csc(N)n1
0.049

Next up: CO/N=C(/C(=O)N[C@@H]1C(=O)N2C(C(=O)[O-])=C(C[n+]3cccc(-c4cc(CO)nn4CCO)c3)CS[C@H]12)c1csc(N)n1
0.098

Next up: CO/N=C(/C(=O)N[C@@H]1C(=O)N2C(C(=O)[O-])=C(C[n+]3cccc(-c4cc(N)[nH]n4)c3)CS[C@H]12)c1csc(N)n1
0.013

Next up: CO/N=C(/C(=O)N[C@@H]1C(=O)N2C(C(=O)[O-])=C(C[n+]3cccc(-c4cc(N)n(CCO)n4)c3)CS[C@H]12)c1csc(N)n1
0.025

Next up: CO/N=C(/C(=O)NC1C(=O)N2C(C(=O)[O-])=C(C[n+]3cccc4c3CCC4)CSC12)c1csc(N)n1 (stereo not drawn)
0.013

###

System: Escherichia coli
Assay: In vitro antimicrobial activity against Escherichia coli 1507E
Type: functional
READOUT_NAME: MIC (µg/mL)
// units = µg/mL; emit number, no label

These solved cases illustrate the format of a correct answer.
MOLECULE | MIC [µg/mL]
CO/N=C(/C(=O)N[C@@H]1C(=O)N2C(C(=O)[O-])=C(C[n+]3cccc(-c4cc(CO)[nH]n4)c3)CS[C@H]12)c1csc(N)n1 | 0.098
CO/N=C(/C(=O)N[C@@H]1C(=O)N2C(C(=O)[O-])=C(C[n+]3cccc(-c4cc(CO)nn4C)c3)CS[C@H]12)c1csc(N)n1 | 0.098
CO/N=C(/C(=O)N[C@@H]1C(=O)N2C(C(=O)[O-])=C(C[n+]3cccc(-c4cc(C(N)=O)nn4CCO)c3)CS[C@H]12)c1csc(N)n1 | 0.195
CO/N=C(/C(=O)N[C@@H]1C(=O)N2C(C(=O)[O-])=C(C[n+]3cccc(-c4cc(N)[nH]n4)c3)CS[C@H]12)c1csc(N)n1 | 0.025
CO/N=C(/C(=O)N[C@@H]1C(=O)N2C(C(=O)[O-])=C(C[n+]3cccc(-c4cc(N)n(C)n4)c3)CS[C@H]12)c1csc(N)n1 | 0.049
CO/N=C(/C(=O)NC1C(=O)N2C(C(=O)[O-])=C(C[n+]3cccc4c3CCC4)CSC12)c1csc(N)n1 (stereo not drawn) | 0.025
CO/N=C(/C(=O)N[C@@H]1C(=O)N2C(C(=O)[O-])=C(C[n+]3cccc(-c4cc[nH]n4)c3)CS[C@H]12)c1csc(N)n1 | 0.195
CO/N=C(/C(=O)N[C@@H]1C(=O)N2C(C(=O)[O-])=C(C[n+]3cccc(-c4cc(C(N)=O)nn4C)c3)CS[C@H]12)c1csc(N)n1 | 0.098
CC(C)(O/N=C(\C(=O)N[C@@H]1C(=O)N2C(C(=O)[O-])=C(C[n+]3ccccc3)CS[C@H]12)c1csc(N)n1)C(=O)O [CEFTAZIDIME] | 0.195
CO/N=C(/C(=O)N[C@@H]1C(=O)N2C(C(=O)[O-])=C(C[n+]3cccc(-c4cc(C(N)=O)[nH]n4)c3)CS[C@H]12)c1csc(N)n1 | 0.098

Requested read-out: MIC. Entry: CO/N=C(/C(=O)N[C@@H]1C(=O)N2C(C(=O)[O-])=C(C[n+]3cccc(-c4cc(CO)nn4CCO)c3)CS[C@H]12)c1csc(N)n1
0.391

Next up: CO/N=C(/C(=O)N[C@@H]1C(=O)N2C(C(=O)[O-])=C(C[n+]3cccc(-c4cc(C)[nH]n4)c3)CS[C@H]12)c1csc(N)n1
0.098

Next up: CO/N=C(/C(=O)N[C@@H]1C(=O)N2C(C(=O)[O-])=C(C[n+]3cccc(-c4cc(N)n(CCO)n4)c3)CS[C@H]12)c1csc(N)n1
0.098
